Sourced from patent US10556892B2

# Protocol: Pharmacokinetics study in mice
# Assay type: in vivo, mouse
# Conditions used: C57B6/J, 10 mg/kg; C57 mouse, po 10 mpk, brain
Property label: half-life (h)
Return type: number; implicit unit h.

Fill in the blank: the reported half-life of CCS(=O)(=O)c1ccccc1C(=O)N1CCN(c2nc3ccc(F)cc3s2)C[C@@H]1C [Compound 8] is ____.
1.22

###

# Protocol: Pharmacokinetics study in mice
# Format: in vivo, mouse
# Conditions used: C57B6/J, mouse; oral 3 mg/kg, mice, plasma
Property label: Cmax (ng/mL)
Give a bare numeral; the unit ng/mL is implied.

Using the record for CCS(=O)(=O)c1ccccc1C(=O)N1CCN(c2nc3ccc(F)cc3s2)C[C@@H]1C [Compound 8] , report its Cmax.
613

###

# Protocol: Aqueous kinetic solubility in PBS pH 7.4
# Type: physicochemical
# Conditions used: phosphate-buffered saline (PBS), 25 °C, pH 7.4, aqueous buffer, kinetic from dmso stock, PBS; Table 5
Property label: solubility at 24 h (µM)
Please respond with the number in µM and leave the unit unwritten.

For the compound CCS(=O)(=O)c1ccccc1C(=O)N1CCN(c2nc3ccc(F)cc3s2)C[C@@H]1C , what solubility at 24 h is on record?
165

###

# Protocol: Plasma stability
# Format: in vitro ADME
# Parameters: dose or concentration left out as unconfirmed
# Conditions used: mouse plasma; Table 5; read-out: Plasma t1/2
Property label: half-life

// query half-life value for entry CCS(=O)(=O)c1ccccc1C(=O)N1CCN(c2nc3ccc(F)cc3s2)C[C@@H]1C [Compound 8]
> 2 h

###

# Protocol: Pharmacokinetics study in mice
# Type: in vivo, mouse
# Conditions used: C57B6/J, 30 mg/kg; C57 mouse, po 30 mpk, plasma
Property label: half-life (h)
Use h as the unit, but write only the number.

Query: half-life; subject: CCS(=O)(=O)c1ccccc1C(=O)N1CCN(c2nc3ccc(F)cc3s2)C[C@@H]1C
1.41

###

# Protocol: Pharmacokinetics study in mice
# Format: in vivo, mouse
# Conditions used: brain and plasma, 3 mg/kg; CD1 mouse, iv 3 mpk; read-out: AUCbrain/AUCplasma
Property label: Kp
Output spec: single numeric token, no unit.

Need Kp, item CCS(=O)(=O)c1ccccc1C(=O)N1CCN(c2nc3ccc(F)cc3s2)C[C@@H]1C [Compound 8]
0.557

###

# Protocol: Pharmacokinetics study in mice
# Type: in vivo, mouse
# Conditions used: 3 mg/kg; CD1 mouse, iv 3 mpk, brain; read-out: AUC
Property label: AUC (ng·h/mL)
Field: numeric (ng·h/mL). Do not append units.

Fill in: AUC of CCS(=O)(=O)c1ccccc1C(=O)N1CCN(c2nc3ccc(F)cc3s2)C[C@@H]1C is ___
867

###

# Protocol: Pharmacokinetics study in mice
# Format: in vivo, mouse
# Conditions used: C57B6/J, 10 mg/kg; C57 mouse, po 10 mpk, brain; read-out: AUC
Property label: AUC (ng·h/mL)
Entry rule: numbers only, all in ng·h/mL.

// query AUC value for entry CCS(=O)(=O)c1ccccc1C(=O)N1CCN(c2nc3ccc(F)cc3s2)C[C@@H]1C
1340

###

# Protocol: In vitro metabolic stability, mouse liver microsomes
# Assay type: in vitro ADME
# Design: dose or concentration left out as unconfirmed
# Conditions used: pH 7.4, NADPH, read-out: MLM (NADPH) t1/2
Property label: half-life

half-life lookup needed for CCS(=O)(=O)c1ccccc1C(=O)N1CCN(c2nc3ccc(F)cc3s2)C[C@@H]1C , thanks.
> 1 h
